molecular target: UniProt P37288; assay: In-vitro receptor binding assay (3H-arginine-8-vasopressin), V1a
measured.parameter: IC50 (µM)
Hi! Could you send only the number? It should be in µM, unit omitted.

For record O=C(Nc1ccc(C(=O)N2CCC3(C=CCCC3)Cc3ccccc32)cc1)c1ccc(Cl)cc1Cl (stereo not shown) the listed IC50 is 0.016

For record O=C(NCCN1CCCCC1)C1=CC2(CC1)CCN(C(=O)c1ccc(NC(=O)c3ccccc3F)cc1)c1ccccc1C2 (stereo not shown) the listed IC50 is 0.007

For record CN(C)CCNC(=O)C1=CC2(CC1)CCN(C(=O)c1ccc(NC(=O)c3ccccc3F)cc1)c1ccccc1C2 (stereo not shown) the listed IC50 is 0.008

For record Cc1ccc(F)cc1C(=O)Nc1ccc(C(=O)N2CCC3(C=C(C(=O)NCCN(C)C)CC3)Cc3ccccc32)cc1 (stereo not shown) the listed IC50 is 0.005

###

biological target: human V2 receptor (Homo sapiens); experiment: In-vitro receptor binding assay (3H-arginine-8-vasopressin), V2; details: @ 0.1 μM
For each of the compounds below, state its Receptor Binding V2 (% Inh. @ concentration in μM).
Hi! Could you send only the number? It should be in % @ 0.1, unit omitted.

For record O=C(Nc1ccc(C(=O)C2Cc3ccccc3CC3(C=CCCC3)C2)cc1)c1ccccc1-c1ccccc1 (stereo not shown) the listed Receptor Binding V2 (% Inh. @ concentration in μM) is 9

For record O=C(O)C1=CC2(CC1)CCN(C(=O)c1ccc(NC(=O)c3ccccc3F)cc1)c1ccccc1C2 (stereo not shown) the listed Receptor Binding V2 (% Inh. @ concentration in μM) is 15

For record Cc1ccccc1C(=O)Nc1ccc(C(=O)C2Cc3ccccc3CC3(C=CCCC3)C2)cc1 (stereo not shown) the listed Receptor Binding V2 (% Inh. @ concentration in μM) is 15

For record Cc1ccc(F)cc1C(=O)Nc1ccc(C(=O)C2Cc3ccccc3CC3(C=CCCC3)C2)cc1 (stereo not shown) the listed Receptor Binding V2 (% Inh. @ concentration in μM) is 3

###

molecular target: human V2 receptor (Homo sapiens); assay: In-vitro receptor binding assay (3H-arginine-8-vasopressin), V2
measured.parameter: IC50 (µM)
Hi! Could you send only the number? It should be in µM, unit omitted.

For record CN(C)CCNC(=O)C1=CC2(CC1)CCN(C(=O)c1ccc(NC(=O)c3ccccc3-c3ccccc3)cc1)c1ccccc1C2 (single isomer, unassigned) [Compound 21] the listed IC50 is 0.44

For record O=C(Nc1ccc(C(=O)N2CCC3(C=CCCC3)Cc3ccccc32)cc1)c1ccccc1Cl (stereo not drawn) the listed IC50 is 0.18

For record O=C(O)C1=CC2(CC1)CCN(C(=O)c1ccc(NC(=O)c3ccccc3-c3ccccc3)cc1)c1ccccc1C2 (stereo not drawn) the listed IC50 is 0.014

For record Cc1ccc(F)cc1C(=O)Nc1ccc(C(=O)N2CCC3(C=C(C(=O)NCCCN(C)C)CC3)Cc3ccccc32)cc1 (stereo not drawn) the listed IC50 is 0.023

For record COC(=O)CNCC1=CC2(CC1)CCN(C(=O)c1ccc(NC(=O)c3cc(F)ccc3C)cc1)c1ccccc1C2 (stereo not drawn) the listed IC50 is 0.1

For record O=C(Nc1ccc(C(=O)N2CCC3(C=CCCC3)Cc3ccccc32)cc1)c1ccccc1F (single isomer, unassigned) [Compound 108] the listed IC50 is 0.57

For record Cc1ccc(F)cc1C(=O)Nc1ccc(C(=O)N2CCC3(C=C(C(=O)NCCO)CC3)Cc3ccccc32)cc1 (stereo not drawn) the listed IC50 is 0.047

For record O=C(Nc1ccc(C(=O)N2CCC3(C=CCCC3)Cc3ccccc32)cc1)c1ccccc1F (stereo not drawn) [Compound 101] the listed IC50 is 0.55

For record CN(C)c1ccc(C(=O)N2CCC3(C=CCCC3)Cc3ccccc32)cc1 (stereo not drawn) the listed IC50 is 10

For record O=C(Nc1ccc(C(=O)N2CCC3(C=C(CO)CC3)Cc3ccccc32)cc1)c1ccccc1-c1ccccc1 (stereo not drawn) the listed IC50 is 0.018

For record O=C(Nc1ccc(C(=O)N2CCC3(CCCCC3=O)Cc3ccccc32)cc1)c1ccccc1-c1ccccc1 (stereo not drawn) [Compound 31] the listed IC50 is 0.054

For record O=C(c1ccc(Cl)cc1)N1CCC2(C=CCCC2)Cc2ccccc21 (stereo not drawn) the listed IC50 is 10

For record CNCC1=CC2(CC1)CCN(C(=O)c1ccc(NC(=O)c3ccccc3-c3ccccc3)cc1)c1ccccc1C2 (stereo not drawn) the listed IC50 is 0.018

For record Cc1cc(F)ccc1C(=O)Nc1ccc(C(=O)N2CCC3(C=CCCC3)Cc3ccccc32)cc1 (stereo not drawn) the listed IC50 is 0.067

For record Cc1ccc(F)cc1C(=O)Nc1ccc(C(=O)N2CCC3(C=C(C(=O)NCCCN4CCCC4)CC3)Cc3ccccc32)cc1 (stereo not drawn) the listed IC50 is 0.038

###

For each of the molecules below, state its inhibition at 1 µM.
Target: V1a (Homo sapiens)
Sequence (P37288 whole entry): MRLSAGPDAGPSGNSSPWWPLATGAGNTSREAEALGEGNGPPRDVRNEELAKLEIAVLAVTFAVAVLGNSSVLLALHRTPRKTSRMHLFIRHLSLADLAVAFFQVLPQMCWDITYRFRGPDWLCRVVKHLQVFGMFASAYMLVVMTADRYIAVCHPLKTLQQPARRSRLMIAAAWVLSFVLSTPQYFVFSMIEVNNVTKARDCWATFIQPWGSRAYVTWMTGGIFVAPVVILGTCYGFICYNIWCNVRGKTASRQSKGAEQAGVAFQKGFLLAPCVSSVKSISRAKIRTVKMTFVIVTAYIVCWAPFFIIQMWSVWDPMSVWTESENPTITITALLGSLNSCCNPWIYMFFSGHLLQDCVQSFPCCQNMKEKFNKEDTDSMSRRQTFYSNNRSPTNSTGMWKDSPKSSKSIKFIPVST
Test: In-vitro receptor binding assay (3H-arginine-8-vasopressin), V1a
Settings: @ 1 μM; read-out: Receptor Binding V1a (% Inh. @ concentration in μM)
Procedure: (A) In-Vitro Binding Assay […] The reaction plates are allowed to sit at room temperature for one hour. The samples are filtered through Unifilter GF/C plates (presoaked in 0.3 polyethyleneimine). The plates are washed 5 times with cold physiological saline containing 0.05% Tween 20. […] The top of the plate is sealed, and the plate is counted. Non-specific binding is determined by the addition of 1.25 μM […]-vasopressin in those wells. % Inh. is calculated as follows: […]
Hi! Could you send only the number? It should be in %, unit omitted.

For record COc1cc(C(=O)N2CCC3(C=C(C(=O)NCCN(C)C)CC3)Cc3ccccc32)ccc1[N+](=O)[O-] (centres unmarked) the listed inhibition at 1 µM is 48

For record O=C(O)c1ccc(C(=O)N2CCC3(C=CCCC3)Cc3ccccc32)cc1 (centres unmarked) the listed inhibition at 1 µM is 8

For record COc1cc(C(=O)N2CCC3(C=C(C(=O)NCCN(C)C)CC3)Cc3ccccc32)ccc1N (centres unmarked) the listed inhibition at 1 µM is 54

For record COc1cc(N)ccc1C(=O)N1CCC2(C=C(C(=O)NCCN(C)C)CC2)Cc2ccccc21 (centres unmarked) the listed inhibition at 1 µM is 7

For record CCN(C(=O)NCCCN(C)C)C(=O)C1=CC2(CC1)CCN(C(=O)c1ccc(N)c(OC)c1)c1ccccc1C2 (centres unmarked) the listed inhibition at 1 µM is 27

###

For each of the molecules below, state its Receptor Binding V2 (% Inh. @ concentration in μM).
target: human V2 receptor (Homo sapiens, UniProt P30518); assay: In-vitro receptor binding assay (3H-arginine-8-vasopressin), V2; conditions: @ 10 μM
Sequence (P30518 whole entry): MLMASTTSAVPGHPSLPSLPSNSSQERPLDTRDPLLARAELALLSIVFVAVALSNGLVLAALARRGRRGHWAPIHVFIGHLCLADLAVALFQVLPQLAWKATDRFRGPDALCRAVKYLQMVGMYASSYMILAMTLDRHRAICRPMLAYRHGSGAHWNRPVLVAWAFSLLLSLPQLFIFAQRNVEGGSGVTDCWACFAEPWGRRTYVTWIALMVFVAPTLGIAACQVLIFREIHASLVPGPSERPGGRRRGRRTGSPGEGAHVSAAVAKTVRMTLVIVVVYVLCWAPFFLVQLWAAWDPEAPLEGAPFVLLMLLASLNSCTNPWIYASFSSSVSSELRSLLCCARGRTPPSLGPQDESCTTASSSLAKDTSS

For record Cc1ccc(C(=O)N2CCC3(C=CCCC3)Cc3ccccc32)cc1 (centres unmarked) [Compound 41] the listed Receptor Binding V2 (% Inh. @ concentration in μM) is 0% @ 10

For record COc1ccc(C(=O)N2CCC3(C=CCCC3)Cc3ccccc32)cc1 (centres unmarked) [Compound 37] the listed Receptor Binding V2 (% Inh. @ concentration in μM) is 37% @ 10

For record O=C(NCc1ccc(C(=O)N2CCC3(C=CCCC3)Cc3ccccc32)cc1)c1ccccc1 (centres unmarked) [Compound 55] the listed Receptor Binding V2 (% Inh. @ concentration in μM) is 29% @ 10

For record O=C(c1ccc(F)cc1)N1CCC2(C=CCCC2)Cc2ccccc21 (centres unmarked) [Compound 44] the listed Receptor Binding V2 (% Inh. @ concentration in μM) is 42% @ 10

For record NCc1ccc(C(=O)N2CCC3(C=CCCC3)Cc3ccccc32)cc1 (centres unmarked) [Compound 42] the listed Receptor Binding V2 (% Inh. @ concentration in μM) is 24% @ 10

For record Cc1ccccc1C(=O)Nc1ccc(C(=O)N2CCC3(CCCCC3)Cc3ccccc32)cc1 [Compound 28] the listed Receptor Binding V2 (% Inh. @ concentration in μM) is 1% @ 10

For record N#Cc1cccc(C(=O)N2CCC3(C=CCCC3)Cc3ccccc32)c1 (centres unmarked) [Compound 52] the listed Receptor Binding V2 (% Inh. @ concentration in μM) is 28% @ 10

For record O=C(c1ccc(I)cc1)N1CCC2(C=CCCC2)Cc2ccccc21 (centres unmarked) [Compound 40] the listed Receptor Binding V2 (% Inh. @ concentration in μM) is 27% @ 10

For record O=C(c1cc(F)cc(F)c1)N1CCC2(C=CCCC2)Cc2ccccc21 (centres unmarked) [Compound 47] the listed Receptor Binding V2 (% Inh. @ concentration in μM) is 29% @ 10

For record O=C(c1ccc(C(F)(F)F)cc1)N1CCC2(C=CCCC2)Cc2ccccc21 (centres unmarked) [Compound 38] the listed Receptor Binding V2 (% Inh. @ concentration in μM) is 35% @ 10

For record O=C(c1cc(C(F)(F)F)cc(C(F)(F)F)c1)N1CCC2(C=CCCC2)Cc2ccccc21 (centres unmarked) [Compound 50] the listed Receptor Binding V2 (% Inh. @ concentration in μM) is 26% @ 10
